- TESTED_SYSTEM: C-C chemokine receptor type 5 (Homo sapiens)
- TEST_SUMMARY: Antagonist activity at human recombinant CCR5 expressed in human HeLa-P4 cells assessed as inhibition of human HeLa-P4 cells binding to HIV1 gp160 expressing CHO cells at 10 uM by cell-cell fusion assay
- Format: cell-based
- Parameters: scale not given: the % may be the effect or the level left
Activity reference
METRIC_NAME: Activity

- Cc1cccc(C)c1C(=O)N1CCC(N(C)C2CN(C(CNC(=O)C3CCC3)c3ccccc3)C2)CC1 (stereo not drawn): 20%
- CC(=O)NC(c1ccccc1)C1CCCN(CCNC(=O)c2c(C)cccc2C)C1 (single isomer, unassigned; diastereomer 2): 12%
- CC(=O)NC(CN1CC(N(C)C2CCN(C(=O)c3c(C)cccc3C)CC2)C1)c1ccccc1 (stereo not drawn): 50%

###

- TESTED_SYSTEM: C-C chemokine receptor type 5 (Homo sapiens, UniProt P51681)
- Sequence (P51681 whole entry, looked up, the tested form may be a part): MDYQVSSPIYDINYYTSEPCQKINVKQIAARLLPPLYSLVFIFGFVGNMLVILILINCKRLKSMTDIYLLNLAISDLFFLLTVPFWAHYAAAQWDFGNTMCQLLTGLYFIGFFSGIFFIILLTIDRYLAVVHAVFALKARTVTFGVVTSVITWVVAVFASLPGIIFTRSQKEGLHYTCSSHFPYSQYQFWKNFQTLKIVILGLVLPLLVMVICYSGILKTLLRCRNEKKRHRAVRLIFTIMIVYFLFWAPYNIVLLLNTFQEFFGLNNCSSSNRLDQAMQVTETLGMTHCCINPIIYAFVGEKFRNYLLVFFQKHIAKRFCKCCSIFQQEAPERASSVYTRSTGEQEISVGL
- TEST_SUMMARY: Antagonist activity at human recombinant CCR5 expressed in human HeLa-P4 cells assessed as inhibition of human HeLa-P4 cells binding to HIV1 gp160 expressing CHO cells at 10 uM by cell-cell fusion assay
- Type: cell-based
- Parameters: scale not given: the % may be the effect or the level left
METRIC_NAME: Activity (%)

• CC(=O)NC(c1ccccc1)[C@H]1CCN(C2CCN(C(=O)c3c(C)cccc3C)CC2)C1 (single isomer, unassigned; diastereomer 2) = 0
• CC(=O)NC1(c2ccccc2)CCN(C2CCN(C(=O)c3c(C)ccnc3C)CC2)CC1 = 20
• Cc1ccnc(C)c1C(=O)N1CCC(N2CCC(C(Cc3ccccc3)C(=O)NCC3CC3)CC2)CC1 (configuration not stated) = 20
• CC(=O)NC(c1ccccc1)C1CCCN(CCNC(=O)c2c(C)cccc2C)C1 (single isomer, unassigned; diastereomer 1) = 20
• Cc1ccnc(C)c1C(=O)N1[C@@H]2CC[C@H]1C[C@@H](N1CCN(C(c3ccccc3)c3ccccc3)CC1)C2 = 21
• CC(=O)NC(c1ccccc1)C1CCCN(C2CCN(C(=O)c3c(C)cccc3C)CC2)C1 (single isomer, unassigned; diastereomer 1) = 28
• CC(=O)NC(c1ccccc1)C1CCCN(C2CCN(C(=O)c3c(C)cccc3C)CC2)C1 (single isomer, unassigned; diastereomer 2) = 0

###

logD reference
- TEST_SUMMARY: Lipophilicity, log D at pH 7.4
- Assay type: physicochemical
- APPLIED_CONDITIONS: buffer
METRIC_NAME: logD

- Cc1cccc(C)c1C(=O)N1CCC(N2CC[C@@H](N(Cc3ccccc3)C(=O)C3CC3)C2)CC1: 2.6
- Cc1cccc(C)c1C(=O)N1CCC(N2CCC(N(Cc3ccccc3)C(=O)C3CCC3)CC2)CC1: 3.5

###

- TESTED_SYSTEM: Voltage-gated inwardly rectifying potassium channel KCNH2 (Homo sapiens, UniProt Q12809)
- Sequence (Q12809 whole entry): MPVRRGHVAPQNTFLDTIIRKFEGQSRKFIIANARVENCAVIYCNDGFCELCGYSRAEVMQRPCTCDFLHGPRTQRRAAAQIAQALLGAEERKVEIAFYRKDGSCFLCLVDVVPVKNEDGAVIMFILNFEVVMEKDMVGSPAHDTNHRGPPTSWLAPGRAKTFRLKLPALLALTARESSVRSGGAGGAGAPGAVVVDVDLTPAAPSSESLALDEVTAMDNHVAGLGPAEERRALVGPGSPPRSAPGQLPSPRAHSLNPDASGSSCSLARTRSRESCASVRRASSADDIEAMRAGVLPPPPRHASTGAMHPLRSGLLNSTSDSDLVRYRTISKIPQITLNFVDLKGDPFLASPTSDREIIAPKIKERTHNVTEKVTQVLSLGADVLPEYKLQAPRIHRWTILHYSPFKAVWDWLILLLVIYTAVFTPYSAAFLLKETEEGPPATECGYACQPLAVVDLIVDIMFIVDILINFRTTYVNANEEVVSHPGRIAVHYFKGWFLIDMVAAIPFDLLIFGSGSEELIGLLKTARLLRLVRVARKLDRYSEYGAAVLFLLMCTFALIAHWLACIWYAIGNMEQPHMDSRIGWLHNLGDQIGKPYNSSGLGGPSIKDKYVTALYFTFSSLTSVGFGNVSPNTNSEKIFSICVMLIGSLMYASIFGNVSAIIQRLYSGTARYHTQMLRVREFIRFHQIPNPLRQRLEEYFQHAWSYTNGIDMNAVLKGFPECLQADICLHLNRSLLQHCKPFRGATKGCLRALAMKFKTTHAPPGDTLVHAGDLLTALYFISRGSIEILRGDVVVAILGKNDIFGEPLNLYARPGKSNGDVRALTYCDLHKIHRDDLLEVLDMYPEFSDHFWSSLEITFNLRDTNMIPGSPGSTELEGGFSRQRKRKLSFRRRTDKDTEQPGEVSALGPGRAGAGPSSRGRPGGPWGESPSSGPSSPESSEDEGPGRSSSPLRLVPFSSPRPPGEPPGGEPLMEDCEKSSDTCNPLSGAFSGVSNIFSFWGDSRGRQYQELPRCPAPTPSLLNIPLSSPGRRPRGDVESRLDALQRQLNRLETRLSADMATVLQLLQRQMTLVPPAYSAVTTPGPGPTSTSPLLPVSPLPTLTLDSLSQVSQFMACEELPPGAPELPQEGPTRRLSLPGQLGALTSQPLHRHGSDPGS
METRIC_NAME: IC50

• Cc1cccc(C)c1C(=O)N1CCC(N2CC[C@@H](N(Cc3ccccc3)C(=O)C3CC3)C2)CC1 = 9.8 µM

###

- TEST_SUMMARY: Metabolic stability in human liver microsomes assessed as intrinsic clearance at 1 uM after 30 mins
- Assay type: ADME, Microsome
microsomal CLint at 1 µM reference
METRIC_NAME: microsomal CLint at 1 µM (µL/min/mg)

• Cc1cccc(C)c1C(=O)N1CCC(N2CCC(N(Cc3ccccc3)C(=O)C3CCC3)CC2)CC1 = 205
• Cc1cccc(C)c1C(=O)N1CCC(N2CC[C@@H](N(Cc3ccccc3)C(=O)C3CC3)C2)CC1 = 195

FYI, the data here is from ChEMBL document CHEMBL1152710.
